Test system: SNB-75 CNS
Assay: NCI-60 one-dose screen, 48 h
Conditions: 10 µM
Compounds without any hit were thinned out: in the full panel of roughly 83,000, 20% have a hit. Activity calls are given as the source filed them. Rule for the calls: active = growth percent below 10; inactive = the rest.
Outcomes: active, inactive

>  <Compound>
Clc1ccc(Cc2ccncc2)cc1

>  <Assigned class>
inactive

$$$$
>  <Compound>
Cc1c2c(nn1C(=O)c1nn(-c3ccc(Cl)cc3)cc1O)-c1ccccc1CC2

>  <Assigned class>
inactive

$$$$
>  <Compound>
CC(=O)/C(=C/c1ccc(Br)cc1)C(=O)c1ccccc1

>  <Assigned class>
inactive

$$$$
>  <Compound>
O=C(Nc1ccccc1)Nc1ncnc2c1ncn2-c1ccccc1

>  <Assigned class>
inactive

$$$$
>  <Compound>
CC1CCCC(C(=O)O)C1C(=O)O (configuration not stated)

>  <Assigned class>
inactive

$$$$
>  <Compound>
O=C(O)c1ccc(-n2cc(CNc3ccc(Cl)cc3)c(-c3ccccc3)n2)cc1

>  <Assigned class>
inactive

$$$$
>  <Compound>
O=[N+]([O-])c1cc(Cl)cc(Cl)c1O

>  <Assigned class>
inactive

$$$$
>  <Compound>
COc1ccc(-c2cc(-c3ccc(Cl)cc3)nc(SCCCC(=O)NO)n2)cc1

>  <Assigned class>
active

$$$$
>  <Compound>
C/C(=N\O)c1ccc(NC(=O)CSc2nnc(-c3ccccc3)n2-c2ccccc2)cc1

>  <Assigned class>
inactive

$$$$
>  <Compound>
O=C1/C=C/[C@@H](O)[C@@H]2C[C@@H](O)C[C@H]2/C=C/CCC[C@H](CCc2ccc(C(F)(F)F)cc2)O1

>  <Assigned class>
active

$$$$
>  <Compound>
CCC(=O)OC1CCC2C3CCC(=O)OC3C(C)(CCC(=O)O)CC12C (configuration not stated)

>  <Assigned class>
active

$$$$
>  <Compound>
CCOc1ccccc1/C=N\N=C(\N)N/N=C/c1ccccc1OCC

>  <Assigned class>
active

$$$$
>  <Compound>
O=C(CCCCCCC(=O)Nc1ccccc1)NO

>  <Assigned class>
inactive

$$$$
>  <Compound>
COc1ccccc1-n1c(-c2csc(NC(C)=O)n2)n[nH]c1=S

>  <Assigned class>
inactive

$$$$
>  <Compound>
N#Cc1c(N)nc(-c2cc(F)cc(C(F)(F)F)c2)nc1-c1ccccc1F

>  <Assigned class>
inactive

$$$$
>  <Compound>
CN(C)CCCOc1cccc(NC2=C(Cl)C(=O)C(Nc3cccc(OCCCN(C)C)c3)=C(Cl)C2=O)c1

>  <Assigned class>
inactive

$$$$
>  <Compound>
COc1cc(C2C(C#N)=C(N)Oc3cc(O)ccc32)cc(OC)c1OC (configuration not stated)

>  <Assigned class>
inactive

$$$$
>  <Compound>
Nc1nc(-c2cccnc2)nc2c1sc(=S)n2-c1ccccc1

>  <Assigned class>
inactive

$$$$
>  <Compound>
CCCCCCCCCCCC[n+]1c(C)cc(N)c2ccccc21

>  <Assigned class>
active

$$$$
>  <Compound>
O=C1/C=C/[C@@H](O)[C@@H]2C[C@@H](O)C[C@H]2/C=C/CCC[C@H](C(F)(F)F)O1

>  <Assigned class>
inactive

$$$$
>  <Compound>
C[C@]12CCC3c4ccc(O)cc4C[C@@H](CCCCCCCCCS(=O)CCCC(F)(F)C(F)(F)F)C3C1CC[C@@H]2O (some centres not stated)

>  <Assigned class>
inactive

$$$$
>  <Compound>
O=C(CCl)Oc1ccc(OC(=O)CCl)cc1

>  <Assigned class>
inactive

$$$$
>  <Compound>
Nc1cc(-c2ccncc2)c[nH]c1=O

>  <Assigned class>
inactive

$$$$
>  <Compound>
OC(CNc1ccnc2cc(Cl)ccc12)CNC1CCCCC1 (configuration not stated)

>  <Assigned class>
inactive

$$$$
>  <Compound>
COc1cc2c(cc1NC(=O)C(Cl)Cl)-c1ccc(NC(=O)C(Cl)Cl)cc1C2

>  <Assigned class>
active

$$$$
>  <Compound>
CCOC(=O)N/N=C/c1ccc(OC)c(OC)c1

>  <Assigned class>
inactive

$$$$
>  <Compound>
Brc1ccc2c(c1)-c1ccccc1C1=NCCN12

>  <Assigned class>
active

$$$$
>  <Compound>
COc1cc(C2CC(c3ccccc3)=NN2C(C)=O)cc(OC)c1OC (configuration not stated)

>  <Assigned class>
active

$$$$
>  <Compound>
COc1cc(-c2nn(-c3cccc(NC(=O)CCN4CCN(Cc5ccccc5)CC4)c3)cc2-c2ccncc2)ccc1Cl

>  <Assigned class>
active

$$$$
>  <Compound>
Cc1ccc(NCCNCC(C)(C)O)c2c(=O)c3ccc(Cl)cc3sc12

>  <Assigned class>
inactive

$$$$
>  <Compound>
N#CCc1csc(Cc2ccccc2)n1

>  <Assigned class>
inactive

$$$$
>  <Compound>
Nc1ccc(CC[C@H]2CCC/C=C/[C@@H]3C[C@H](O)C[C@H]3[C@H](O)/C=C/C(=O)O2)cc1

>  <Assigned class>
inactive

$$$$
>  <Compound>
CC(=O)OC1C=CC(OC(C)=O)O1 (configuration not stated)

>  <Assigned class>
inactive

$$$$
>  <Compound>
CCCCCCCCCCOC(c1ccccc1)c1ccccc1

>  <Assigned class>
inactive

$$$$
>  <Compound>
CC(C)(C)OC(=O)CN1CCc2c(sc3ncnc(N/N=C/c4cccc5ccccc45)c23)C1

>  <Assigned class>
inactive

$$$$
>  <Compound>
CN(C)CCC1(c2ccccc2)CCN(C)C1=O (configuration not stated)

>  <Assigned class>
inactive

$$$$
>  <Compound>
Cc1cc(C(C#N)c2ccc(Cl)cc2)c(Cl)cc1NC(=O)c1cc(I)cc(I)c1O (configuration not stated)

>  <Assigned class>
inactive

$$$$
